Ref: ChEMBL document CHEMBL1155082

method_description: Displacement of [3H]KA from KA receptor in rat synaptosomes
Assay type: subcellular, Brain
readout_name: pIC50

| compound_smiles | readout_name | test_result |
| --- | --- | --- |
| CNC(=O)CC[C@H](C[C@H](N)C(=O)O)C(=O)O | pIC50 | 4.54 |
| N[C@@H](C[C@@H](CC(=O)O)C(=O)O)C(=O)O | pIC50 | 4.41 |
| N[C@@H](C[C@@H](COCc1ccccc1)C(=O)O)C(=O)O | pIC50 | 4.93 |

1. CCNC(=O)CC[C@H](C[C@H](N)C(=O)O)C(=O)O
2. N[C@@H](C[C@@H](CO)C(=O)O)C(=O)O
-- ask Lowest pIC50? choose 1 or 2 API: response body contains the label of the selected item.
-- reply 1
(1: 4.39, 2: 6.62)

---

System: Escherichia coli
method_description: Activity at Escherichia coli JM103 aspartate aminotransferase relative to alpha-ketoglutarate
readout_name: kcat (%)

| compound | scale_unit | kcat |
| --- | --- | --- |
| COC(=O)CCC(CC(=O)C(=O)O)C(=O)O (racemic) | % | 33.6 |

a. COC(=O)CC(CC(=O)C(=O)O)C(=O)O (racemic)
b. O=C(O)C(=O)CC(CO)C(=O)O (racemic)
c. O=C(O)CC(CC(=O)C(=O)O)C(=O)O (racemic)
d. O=C(O)C(=O)CC(COCc1ccccc1)C(=O)O (racemic)
-- ask Please produce an ascending ranking of these compounds based on kcat. Answer with the labels in sequence, matching the requested order.
-- reply c, b, d, a
(c: 1.1%, b: 1.6%, d: 11%, a: 41%)

---

tested_target: Glutamate NMDA receptor
method_description: Displacement of [3H]CGP 39653 from NMDA receptor in rat synaptosomes
readout_name: Ki (µM)

| compound_smiles | scale_unit | Ki |
| --- | --- | --- |
| N[C@@H](C[C@@H](CCC(=O)NCc1ccccc1)C(=O)O)C(=O)O | µM | 72 |

I. N[C@@H](C[C@@H](CCC(=O)O)C(=O)O)C(=O)O
II. N[C@@H](C[C@@H](CO)C(=O)O)C(=O)O
III. N[C@@H](C[C@@H](COCc1ccccc1)C(=O)O)C(=O)O
-- ask Ascending by Ki, please. Write the labels out in the order the request specifies.
-- reply II, III, I
(II: 15 µM, III: 26 µM, I: 52 µM)

---

method_description: Displacement of [3H]AMPA from AMPA receptor in rat synaptosomes
Type: subcellular, Brain
readout_name: pIC50

| compound_smiles | readout_name | test_result |
| --- | --- | --- |
| N[C@@H](C[C@@H](CO)C(=O)O)C(=O)O | pIC50 | 4.35 |
| CNC(=O)CC[C@H](C[C@H](N)C(=O)O)C(=O)O | pIC50 | 4.51 |
| NC(=O)CC[C@H](C[C@H](N)C(=O)O)C(=O)O | pIC50 | 4.6 |
| COC(=O)CC[C@H](C[C@H](N)C(=O)O)C(=O)O | pIC50 | 4.51 |
| CCNC(=O)CC[C@H](C[C@H](N)C(=O)O)C(=O)O | pIC50 | 4.13 |

---

tested_target: Glutamate receptor ionotropic, kainate 1 (Rattus norvegicus, UniProt P22756)
Sequence (P22756 whole entry): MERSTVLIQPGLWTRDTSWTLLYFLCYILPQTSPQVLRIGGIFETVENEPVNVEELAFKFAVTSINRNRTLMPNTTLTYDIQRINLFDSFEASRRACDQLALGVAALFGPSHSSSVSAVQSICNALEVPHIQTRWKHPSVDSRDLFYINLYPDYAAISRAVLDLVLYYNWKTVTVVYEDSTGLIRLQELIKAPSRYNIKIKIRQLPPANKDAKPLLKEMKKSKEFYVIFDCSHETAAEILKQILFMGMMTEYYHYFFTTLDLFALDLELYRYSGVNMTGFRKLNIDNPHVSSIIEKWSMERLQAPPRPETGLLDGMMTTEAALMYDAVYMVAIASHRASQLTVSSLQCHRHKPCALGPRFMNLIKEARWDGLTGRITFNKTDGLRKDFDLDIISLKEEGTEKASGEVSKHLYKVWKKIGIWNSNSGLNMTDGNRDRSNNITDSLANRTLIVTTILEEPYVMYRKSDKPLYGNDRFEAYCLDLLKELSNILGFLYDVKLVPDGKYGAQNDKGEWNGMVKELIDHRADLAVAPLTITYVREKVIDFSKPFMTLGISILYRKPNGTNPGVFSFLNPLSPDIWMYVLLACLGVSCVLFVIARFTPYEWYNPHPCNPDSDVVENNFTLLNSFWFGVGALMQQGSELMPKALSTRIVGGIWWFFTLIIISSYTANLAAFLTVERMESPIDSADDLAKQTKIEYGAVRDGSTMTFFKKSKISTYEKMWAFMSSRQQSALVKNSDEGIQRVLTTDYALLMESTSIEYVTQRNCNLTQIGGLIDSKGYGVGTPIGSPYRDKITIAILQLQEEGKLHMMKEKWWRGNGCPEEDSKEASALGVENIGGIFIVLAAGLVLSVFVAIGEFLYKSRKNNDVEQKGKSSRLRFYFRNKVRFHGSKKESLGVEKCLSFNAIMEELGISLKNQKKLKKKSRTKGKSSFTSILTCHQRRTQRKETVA
method_description: Displacement of [3H]SYM2081 from rat recombinant iGluR5
conditions: read-out: Ki
readout_name: Ki (nM)

| molecule | scale_unit | Ki |
| --- | --- | --- |
| COC(=O)CC[C@H](C[C@H](N)C(=O)O)C(=O)O | nM | 42.8 |

I. CNC(=O)CC[C@H](C[C@H](N)C(=O)O)C(=O)O
II. NC(=O)CC[C@H](C[C@H](N)C(=O)O)C(=O)O
III. N[C@@H](C[C@@H](CCC(=O)NCc1ccccc1)C(=O)O)C(=O)O
-- ask Ascending sort, Ki. Reply format: the labels, ordered as requested.
-- reply I, II, III

---

tested_target: Glutamate receptor ionotropic, kainate 2 (Rattus norvegicus)
Sequence (P42260 whole entry): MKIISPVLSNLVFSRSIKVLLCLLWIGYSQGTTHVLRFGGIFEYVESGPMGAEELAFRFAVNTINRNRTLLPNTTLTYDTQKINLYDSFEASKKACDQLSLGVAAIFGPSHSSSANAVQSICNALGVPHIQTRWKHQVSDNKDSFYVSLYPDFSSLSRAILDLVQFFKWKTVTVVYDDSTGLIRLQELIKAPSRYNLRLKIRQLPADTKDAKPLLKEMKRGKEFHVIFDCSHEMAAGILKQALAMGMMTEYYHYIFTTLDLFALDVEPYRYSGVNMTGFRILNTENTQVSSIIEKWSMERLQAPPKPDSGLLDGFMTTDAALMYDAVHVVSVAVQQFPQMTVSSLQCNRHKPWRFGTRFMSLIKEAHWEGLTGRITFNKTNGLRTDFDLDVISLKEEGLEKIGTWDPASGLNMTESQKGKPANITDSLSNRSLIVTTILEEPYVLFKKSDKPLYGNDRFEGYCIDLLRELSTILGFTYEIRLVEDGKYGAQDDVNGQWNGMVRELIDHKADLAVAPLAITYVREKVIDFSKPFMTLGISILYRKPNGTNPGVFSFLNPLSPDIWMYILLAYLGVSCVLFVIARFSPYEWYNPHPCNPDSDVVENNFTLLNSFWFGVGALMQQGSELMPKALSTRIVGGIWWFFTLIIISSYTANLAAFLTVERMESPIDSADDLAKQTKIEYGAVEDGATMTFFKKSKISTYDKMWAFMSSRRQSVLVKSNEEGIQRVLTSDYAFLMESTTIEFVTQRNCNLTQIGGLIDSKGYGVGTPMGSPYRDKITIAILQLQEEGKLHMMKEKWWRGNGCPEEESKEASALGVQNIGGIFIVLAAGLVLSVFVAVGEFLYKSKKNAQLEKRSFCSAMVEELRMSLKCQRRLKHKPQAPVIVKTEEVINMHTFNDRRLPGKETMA
method_description: Displacement of [3H]SYM2081 from rat recombinant iGluR6
conditions: read-out: pKi (converted)
readout_name: Ki (µM)

| compound_smiles | tested_target | scale_unit | Ki |
| --- | --- | --- | --- |
| C/C(=C\C=C\[C@@H](C)C(=O)O)[C@H]1CN[C@H](C(=O)O)[C@H]1CC(=O)O | Glutamate receptor ionotropic, kainate 2 (Rattus norvegicus) | µM | 0.00575 |

a. CNC(=O)CC[C@H](C[C@H](N)C(=O)O)C(=O)O
b. COC(=O)CC[C@H](C[C@H](N)C(=O)O)C(=O)O
c. CCNC(=O)CC[C@H](C[C@H](N)C(=O)O)C(=O)O
-- ask Falling order of Ki, please. Respond with an ordered listing of the labels, as requested.
-- reply c, b, a
(c: 10.2 µM, b: 6.17 µM, a: 0.12 µM)

---

Test system: Escherichia coli
method_description: Activity at Escherichia coli JM103 aspartate aminotransferase
readout_name: Km (µM)

Use the examples below as a reference point.
| compound | scale_unit | test_result |
| --- | --- | --- |
| COC(=O)CC(CC(=O)C(=O)O)C(=O)O (racemic) | µM | 1800 |
| O=C(O)CC(CC(=O)C(=O)O)C(=O)O (racemic) | µM | 30100 |
| O=C(O)C(=O)CC(CO)C(=O)O (racemic) | µM | 4700 |

P. O=C(O)C(=O)CC(COCc1ccccc1)C(=O)O (racemic)
Q. COC(=O)CCC(CC(=O)C(=O)O)C(=O)O (racemic)
-- ask Lab note: check whether P or Q has the lower measured Km. Answer by stating the label of the chosen item.
-- reply P

---

method_description: Displacement of [3H]KA from KA receptor in rat synaptosomes
Assay type: subcellular, Brain
readout_name: IC50 (µM)

Recorded IC50, per entry:
| compound_smiles | scale_unit | test_result |
| --- | --- | --- |
| CNC(=O)CC[C@H](C[C@H](N)C(=O)O)C(=O)O | µM | 29 |
| CCNC(=O)CC[C@H](C[C@H](N)C(=O)O)C(=O)O | µM | 41 |
| NC(=O)CC[C@H](C[C@H](N)C(=O)O)C(=O)O | µM | 16 |

I. N[C@@H](C[C@@H](CO)C(=O)O)C(=O)O
II. N[C@@H](C[C@@H](COCc1ccccc1)C(=O)O)C(=O)O
-- ask Between the entries labelled I and II , which has a larger IC50 value on record? Respond with the label that goes with your answer.
-- reply II

P. COC(=O)CC[C@H](C[C@H](N)C(=O)O)C(=O)O
Q. N[C@@H](C[C@@H](CC(=O)O)C(=O)O)C(=O)O
-- ask When their IC50 values are compared, which is larger, P or Q ? To answer, give the label that identifies your chosen option.
-- reply Q
(Q: 39 µM, P: 7.9 µM)

---

method_description: Displacement of [3H]AMPA from AMPA receptor in rat synaptosomes
Type: subcellular, Brain
readout_name: IC50 (µM)

Completed entries (count: 3):
| compound_smiles | readout_name | scale_unit | test_result |
| --- | --- | --- | --- |
| N[C@@H](C[C@@H](CO)C(=O)O)C(=O)O | IC50 | µM | 44 |
| COC(=O)CC[C@H](C[C@H](N)C(=O)O)C(=O)O | IC50 | µM | 31 |
| NC(=O)CC[C@H](C[C@H](N)C(=O)O)C(=O)O | IC50 | µM | 25 |

P. CNC(=O)CC[C@H](C[C@H](N)C(=O)O)C(=O)O
Q. CCNC(=O)CC[C@H](C[C@H](N)C(=O)O)C(=O)O
-- ask Please indicate which item has the smaller measured IC50: P versus Q # reply format: chosen label
-- reply P
(P: 32 µM, Q: 74 µM)

---

tested_target: Glutamate receptor ionotropic, kainate 2 (Rattus norvegicus)
method_description: Displacement of [3H]SYM2081 from rat recombinant iGluR6
conditions: read-out: Ki
readout_name: Ki (µM)

Solved cases (3 shown):
| molecule | tested_target | scale_unit | test_result |
| --- | --- | --- | --- |
| CCNC(=O)CC[C@H](C[C@H](N)C(=O)O)C(=O)O | Glutamate receptor ionotropic, kainate 2 (Rattus norvegicus) | µM | 10.6 |
| C/C(=C\C=C\[C@@H](C)C(=O)O)[C@H]1CN[C@H](C(=O)O)[C@H]1CC(=O)O [DOMORIC ACID] | Glutamate receptor ionotropic, kainate 2 (Rattus norvegicus) | µM | 0.00604 |
| C[C@H](C[C@H](N)C(=O)O)C(=O)O [2S,4R-4-METHYLGLUTAMATE] | Glutamate receptor ionotropic, kainate 2 (Rattus norvegicus) | µM | 0.017 |

P. NC(=O)CC[C@H](C[C@H](N)C(=O)O)C(=O)O
Q. CNC(=O)CC[C@H](C[C@H](N)C(=O)O)C(=O)O
R. COC(=O)CC[C@H](C[C@H](N)C(=O)O)C(=O)O
-- ask Could you please order the items by Ki, going from the lowest number to the highest? # the answer lists labels in the order requested
-- reply Q, R, P
